# key: entry, value: inhibition
TESTED_ON: Genome polyprotein (West Nile virus)
METHOD: Inhibition of West Nile virus His-tagged NS2B cofactor domain-NS3 protease expressed in Escherichia coli at 50 uM using 2-Abz-Gly-Leu-Lys-Arg-Gly-Gly-(3-NO2)-Tyr-NH2 as substrate preincubated with enzyme for 15 mins followed by substrate addition measured for every 1 sec for 15 mins by fluorescence microplate reader based HPLC analysis relative to control
Numbers only; they are read as %.

N=C(N)NCCCCOC(=O)c1ccc(NC(=N)N)cc1 ... 17.1
N=C(N)Nc1ccc(C(=O)Oc2cccc(NC(=N)N)c2)cc1 ... 17.5

API: the following record is the query input.
Notebook: CN(C)C(=O)COC(=O)Cc1ccc(OC(=O)c2ccc(NC(=N)N)cc2)cc1 [CAMOSTAT] , inhibition read as 12.6

* * *

TESTED_ON: Trypsin (Homo sapiens, UniProt P07477+P07478+P35030)
METHOD: Inhibition of trypsin (unknown origin) using Boc-Val-Pro-Arg-AMC as substrate preincubated with enzyme for 15 mins followed by addition of substrate by fluorescence plate reader analysis
Format: protein assay
MEASURED_PROPERTY: IC50 (nM)
Give the quantity in nM, number only.

N=C(N)NCCCOC(=O)c1ccc(NC(=N)N)cc1 ... 9840
N=C(N)Nc1ccc(OC(=O)c2ccc(NC(=N)N)cc2)cc1 ... 1.35
N=C(N)Nc1ccc(NC(=O)Oc2ccc(N)cc2)cc1 ... 46300
CN(C)C(=O)COC(=O)Cc1ccc(OC(=O)c2ccc(NC(=N)N)cc2)cc1 ... 3.5
N=C(N)Nc1ccc(C(=O)Oc2ccc(CN)cc2)cc1 ... 1.56

Form: compound = N=C(N)NCCCCOC(=O)c1ccc(NC(=N)N)cc1 ; IC50 = 8270

Lab book: IC50 of N=C(N)Nc1ccc(OC(=O)c2ccc(N)cc2)cc1 noted as 2.78

Field IC50 (entry N=C(N)Nc1ccc(C(=O)Nc2cccc(NC(=N)N)c2)cc1 ) reads 23900

Value of IC50 reported for the compound N=C(N)Nc1ccc(C(=O)Oc2ccc(N)cc2)cc1 is 28

* * *

TESTED_ON: Genome polyprotein (dengue virus type 2)
METHOD: Time-dependent inhibition of dengue virus serotype 2 His-tagged NS2B cofactor domain-NS3 protease expressed in Escherichia coli at 50 uM using 2-Abz-Nle-Lys-Arg-Arg-Ser-(3-NO2)-Tyr-NH2 as substrate preincubated with enzyme for 20 to 40 mins followed by substrate addition measured for every 1 sec for 15 mins by fluorescence plate reader based HPLC analysis
The source made the active and inactive calls. The rule behind the calls is not given here.
Please reply with one of these outcomes: active, inactive

Previously resolved entries follow.
N=C(N)Nc1ccc(OC(=O)c2ccc(NC(=N)N)cc2)cc1 ... active
N=C(N)Nc1ccc(OC(=O)c2ccc(N)cc2)cc1 ... active
N=C(N)Nc1ccc(NC(=O)c2ccc(NC(=N)N)cc2)cc1 ... inactive

Called result for N=C(N)Nc1ccc(C(=O)Oc2ccc(CN)cc2)cc1
active

* * *

inhibition overview
TESTED_ON: Genome polyprotein (West Nile virus)
METHOD: Inhibition of West Nile virus His-tagged NS2B cofactor domain-NS3 protease expressed in Escherichia coli at 1 mM using 2-Abz-Gly-Leu-Lys-Arg-Gly-Gly-(3-NO2)-Tyr-NH2 as substrate preincubated with enzyme for 15 mins followed by substrate addition measured for every 1 sec for 15 mins by fluorescence microplate reader based HPLC analysis relative to control
Report only the number, with the unit % understood.

CN(C)C(=O)Oc1cc(NC(=N)N)ccc1C(=O)Nc1ccc(CN)cc1 ... 73.3
CN(C)C(=O)Oc1cc(NC(=N)N)ccc1NC(=O)c1ccc(NC(=N)N)cc1 ... 23.9

// below: inhibition requested for another compound
inhibition reading for CN(C(=O)Oc1ccc(N)cc1)c1ccc(N)cc1 : 68

* * *

TESTED_ON: Prothrombin (Homo sapiens, UniProt P00734)
METHOD: Inhibition of thrombin (unknown origin) at 500 uM using Boc-Val-Pro-Arg-AMC as substrate preincubated with enzyme for 15 mins followed by addition of substrate by fluorescence plate reader analysis relative to control
Threshold check on inhibition: at or above 50% gives true (1), strictly below gives false (0).

Please review the entries below; each comes with its answer.
CN(C)C(=O)Oc1cc(NC(=N)N)ccc1NC(=O)c1ccc(NC(=N)N)cc1 ... true (1)
CN(C(=O)Oc1ccc(CN)cc1)c1ccc(CN)cc1 ... false (0)
CN(C)C(=O)Oc1cc(NC(=N)N)ccc1C(=O)Nc1ccc(CN)cc1 ... false (0)
CN(C(=O)Oc1ccc(CN)cc1)c1ccc(N)cc1 ... false (0)
N=C(N)Nc1ccc(NC(=O)Oc2ccc(N)cc2)cc1 ... false (0)

Threshold query (inhibition >= 50%) on CN(C)C(=O)Oc1ccc(NC(=N)N)cc1C(=O)Nc1ccc(CN)cc1
false (0)

Is it the case that CN(C(=O)Oc1ccc(N)cc1)c1ccc(N)cc1 has inhibition reaching or exceeding 50%?
true (1)

Say whether N=C(N)NCc1ccc(NC(=O)Oc2ccc(N)cc2)cc1 shows inhibition of 50% or more.
false (0)

Please indicate if the recorded inhibition for Nc1ccc(NC(=O)Oc2ccc(N)cc2)cc1 meets or exceeds 50%.
true (1)

* * *

TESTED_ON: UniProt:P06935
Sequence (P06935 whole entry, the tested form may be a part): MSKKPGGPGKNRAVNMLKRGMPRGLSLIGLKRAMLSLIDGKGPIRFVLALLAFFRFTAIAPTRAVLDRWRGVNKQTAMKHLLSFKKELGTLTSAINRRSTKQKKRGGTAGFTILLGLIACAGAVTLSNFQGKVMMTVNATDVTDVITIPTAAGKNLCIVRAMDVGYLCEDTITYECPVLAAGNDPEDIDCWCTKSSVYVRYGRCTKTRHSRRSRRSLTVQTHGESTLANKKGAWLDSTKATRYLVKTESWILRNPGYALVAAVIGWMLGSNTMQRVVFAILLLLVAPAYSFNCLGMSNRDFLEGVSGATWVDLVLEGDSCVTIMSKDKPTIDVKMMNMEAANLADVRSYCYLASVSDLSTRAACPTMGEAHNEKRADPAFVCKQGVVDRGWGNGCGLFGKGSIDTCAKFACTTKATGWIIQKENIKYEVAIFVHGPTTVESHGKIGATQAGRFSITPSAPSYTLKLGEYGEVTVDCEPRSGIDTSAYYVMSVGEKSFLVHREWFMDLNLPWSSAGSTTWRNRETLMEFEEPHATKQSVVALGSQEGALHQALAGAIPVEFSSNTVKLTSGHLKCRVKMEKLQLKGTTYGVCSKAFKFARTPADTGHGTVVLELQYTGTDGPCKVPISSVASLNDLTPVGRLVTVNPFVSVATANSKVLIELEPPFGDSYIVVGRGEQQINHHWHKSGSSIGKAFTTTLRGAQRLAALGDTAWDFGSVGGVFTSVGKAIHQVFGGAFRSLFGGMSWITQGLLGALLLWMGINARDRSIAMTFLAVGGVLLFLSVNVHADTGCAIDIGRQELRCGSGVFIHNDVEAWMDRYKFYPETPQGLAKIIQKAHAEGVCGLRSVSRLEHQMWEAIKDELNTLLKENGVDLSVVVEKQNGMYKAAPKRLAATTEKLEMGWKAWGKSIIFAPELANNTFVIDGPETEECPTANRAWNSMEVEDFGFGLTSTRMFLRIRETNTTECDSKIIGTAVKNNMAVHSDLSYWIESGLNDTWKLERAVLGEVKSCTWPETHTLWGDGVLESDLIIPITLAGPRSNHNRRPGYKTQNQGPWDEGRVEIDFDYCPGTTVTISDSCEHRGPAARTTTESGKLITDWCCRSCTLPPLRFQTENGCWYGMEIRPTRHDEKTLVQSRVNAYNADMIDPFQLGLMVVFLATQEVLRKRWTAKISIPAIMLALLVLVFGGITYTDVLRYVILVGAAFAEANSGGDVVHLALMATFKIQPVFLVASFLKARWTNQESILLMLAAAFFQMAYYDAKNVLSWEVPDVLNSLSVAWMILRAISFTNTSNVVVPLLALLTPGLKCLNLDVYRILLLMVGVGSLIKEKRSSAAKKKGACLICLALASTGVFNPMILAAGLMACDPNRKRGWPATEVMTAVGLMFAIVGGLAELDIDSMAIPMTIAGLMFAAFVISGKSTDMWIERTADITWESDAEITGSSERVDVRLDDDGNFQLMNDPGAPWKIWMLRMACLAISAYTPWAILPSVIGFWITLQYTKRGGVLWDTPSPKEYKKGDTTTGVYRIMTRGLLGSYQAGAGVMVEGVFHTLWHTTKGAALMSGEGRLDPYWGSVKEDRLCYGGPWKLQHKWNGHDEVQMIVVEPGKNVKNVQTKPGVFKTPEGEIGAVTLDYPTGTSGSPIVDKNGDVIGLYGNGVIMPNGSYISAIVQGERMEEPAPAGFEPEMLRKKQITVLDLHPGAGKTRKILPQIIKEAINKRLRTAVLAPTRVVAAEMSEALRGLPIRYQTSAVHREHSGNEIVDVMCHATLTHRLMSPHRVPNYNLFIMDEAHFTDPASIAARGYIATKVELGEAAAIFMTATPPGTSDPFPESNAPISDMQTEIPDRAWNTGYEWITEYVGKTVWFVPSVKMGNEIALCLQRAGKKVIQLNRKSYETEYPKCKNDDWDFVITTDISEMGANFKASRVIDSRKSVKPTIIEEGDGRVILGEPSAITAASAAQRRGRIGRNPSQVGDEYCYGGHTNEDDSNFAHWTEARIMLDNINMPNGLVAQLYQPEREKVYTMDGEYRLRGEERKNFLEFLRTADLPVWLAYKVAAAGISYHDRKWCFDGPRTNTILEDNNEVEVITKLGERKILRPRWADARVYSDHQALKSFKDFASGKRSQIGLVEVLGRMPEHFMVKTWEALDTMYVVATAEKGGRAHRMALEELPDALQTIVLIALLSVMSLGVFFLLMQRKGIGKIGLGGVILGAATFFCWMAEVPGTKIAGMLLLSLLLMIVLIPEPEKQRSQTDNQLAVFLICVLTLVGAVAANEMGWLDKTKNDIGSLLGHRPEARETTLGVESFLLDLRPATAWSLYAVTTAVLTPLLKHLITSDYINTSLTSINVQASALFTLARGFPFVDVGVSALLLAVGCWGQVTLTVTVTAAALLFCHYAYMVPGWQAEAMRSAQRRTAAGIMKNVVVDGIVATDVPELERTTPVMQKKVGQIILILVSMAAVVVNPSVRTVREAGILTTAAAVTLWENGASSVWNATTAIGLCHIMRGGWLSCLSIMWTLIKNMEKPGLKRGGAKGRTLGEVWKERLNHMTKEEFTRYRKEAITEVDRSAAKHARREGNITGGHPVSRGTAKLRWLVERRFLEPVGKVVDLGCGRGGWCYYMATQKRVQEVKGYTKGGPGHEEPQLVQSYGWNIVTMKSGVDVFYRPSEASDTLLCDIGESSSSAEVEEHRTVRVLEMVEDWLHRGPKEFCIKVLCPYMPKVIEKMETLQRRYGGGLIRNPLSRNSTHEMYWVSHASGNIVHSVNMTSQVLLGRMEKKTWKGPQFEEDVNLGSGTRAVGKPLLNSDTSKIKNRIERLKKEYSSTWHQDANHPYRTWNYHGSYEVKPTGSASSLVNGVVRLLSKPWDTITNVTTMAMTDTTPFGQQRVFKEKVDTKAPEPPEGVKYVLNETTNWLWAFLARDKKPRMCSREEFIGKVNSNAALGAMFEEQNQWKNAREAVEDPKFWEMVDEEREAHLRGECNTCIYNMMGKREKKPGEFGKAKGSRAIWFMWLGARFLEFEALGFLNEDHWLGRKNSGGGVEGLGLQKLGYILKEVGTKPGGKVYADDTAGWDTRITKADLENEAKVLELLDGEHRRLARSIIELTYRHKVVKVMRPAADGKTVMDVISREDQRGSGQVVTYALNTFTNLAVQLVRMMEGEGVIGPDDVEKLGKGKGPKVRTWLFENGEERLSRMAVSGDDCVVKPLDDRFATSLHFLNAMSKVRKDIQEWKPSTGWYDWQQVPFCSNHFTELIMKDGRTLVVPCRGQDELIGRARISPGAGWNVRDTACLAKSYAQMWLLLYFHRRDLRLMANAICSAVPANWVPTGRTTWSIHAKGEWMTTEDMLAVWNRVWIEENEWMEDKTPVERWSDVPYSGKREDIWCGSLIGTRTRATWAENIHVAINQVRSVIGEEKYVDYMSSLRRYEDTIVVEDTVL
METHOD: Inhibition of West Nile virus His-tagged NS2B cofactor domain-NS3 protease expressed in Escherichia coli at 1 mM using 2-Abz-Gly-Leu-Lys-Arg-Gly-Gly-(3-NO2)-Tyr-NH2 as substrate preincubated with enzyme for 15 mins followed by substrate addition measured for every 1 sec for 15 mins by fluorescence microplate reader based HPLC analysis relative to control
MEASURED_PROPERTY: inhibition (%)
Give just the number in %; leave the unit off.

Examples from the recorded data:
Nc1ccc(NC(=O)Oc2ccc(N)cc2)cc1 ... 72.8
N=C(N)NCc1ccc(NC(=O)Oc2ccc(N)cc2)cc1 ... 68.8
CN(C(=O)Oc1ccc(CN)cc1)c1ccc(CN)cc1 ... 62.9

Lab book: inhibition of CN(C(=O)Oc1ccc(CN)cc1)c1ccc(N)cc1 noted as 59.3

Reported inhibition of N=C(N)Nc1ccc(NC(=O)Oc2ccc(N)cc2)cc1 : 61.9

inhibition in this record for CN(C)C(=O)Oc1ccc(NC(=N)N)cc1C(=O)Nc1ccc(CN)cc1 : 76.1

* * *

METHOD: Stability of compound in TRIS buffer assessed as half life at pH 9
Assay type: physicochemical
MEASURED_PROPERTY: half-life (min)
Only the number, expressed in min, is required.

Sure, the documented half-life for N=C(N)Nc1ccc(OC(=O)c2ccc(NC(=N)N)cc2)cc1 is 16.8

* * *

TESTED_ON: Genome polyprotein (dengue virus type 2) (UniProt P29990)
METHOD: Inhibition of dengue virus serotype 2 His-tagged NS2B cofactor domain-NS3 protease expressed in Escherichia coli at 1 mM using 2-Abz-Nle-Lys-Arg-Arg-Ser-(3-NO2)-Tyr-NH2 as substrate preincubated with enzyme for 15 mins followed by substrate addition measured for every 1 sec for 15 mins by fluorescence plate reader based HPLC analysis relative to control
MEASURED_PROPERTY: inhibition (%)
Kindly provide the numeric value in % only, without the unit symbol.

N=C(N)Nc1ccc(NC(=O)Oc2ccc(N)cc2)cc1 ... 52
CN(C)C(=O)Oc1ccc(NC(=N)N)cc1C(=O)Nc1ccc(CN)cc1 ... 56

// next entry
Lookup result for CN(C(=O)Oc1ccc(CN)cc1)c1ccc(CN)cc1 ; measured inhibition: 31.3

* * *

Let's look at some molecules and their measured inhibition.
TESTED_ON: Genome polyprotein (dengue virus type 2)
METHOD: Inhibition of dengue virus serotype 2 His-tagged NS2B cofactor domain-NS3 protease expressed in Escherichia coli at 1 mM using 2-Abz-Nle-Lys-Arg-Arg-Ser-(3-NO2)-Tyr-NH2 as substrate preincubated with enzyme for 15 mins followed by substrate addition measured for every 1 sec for 15 mins by fluorescence plate reader based HPLC analysis relative to control
Reply with just the number (in %).

Nc1ccc(NC(=O)Oc2ccc(N)cc2)cc1 ... 33.7
CN(C(=O)Oc1ccc(CN)cc1)c1ccc(N)cc1 ... 22.9
CN(C)C(=O)Oc1cc(NC(=N)N)ccc1C(=O)Nc1ccc(CN)cc1 ... 74.4
CN(C(=O)Oc1ccc(N)cc1)c1ccc(N)cc1 ... 29.8
N=C(N)NCc1ccc(NC(=O)Oc2ccc(N)cc2)cc1 ... 60.8

Summary line: CN(C)C(=O)Oc1cc(NC(=N)N)ccc1NC(=O)c1ccc(NC(=N)N)cc1 , Genome polyprotein (dengue virus type 2), reported inhibition = 20.2

* * *

METHOD: Stability of compound in phosphate buffer assessed as half life at pH 11
Type: physicochemical
MEASURED_PROPERTY: half-life

// half-life value for N=C(N)Nc1ccc(OC(=O)c2ccc(NC(=N)N)cc2)cc1 : 17.8 min

Origin of values: ChEMBL document CHEMBL4350980
